IC50 reference
# assayed-target: D2 receptor (Homo sapiens, UniProt P14416)
# Sequence (P14416 whole entry): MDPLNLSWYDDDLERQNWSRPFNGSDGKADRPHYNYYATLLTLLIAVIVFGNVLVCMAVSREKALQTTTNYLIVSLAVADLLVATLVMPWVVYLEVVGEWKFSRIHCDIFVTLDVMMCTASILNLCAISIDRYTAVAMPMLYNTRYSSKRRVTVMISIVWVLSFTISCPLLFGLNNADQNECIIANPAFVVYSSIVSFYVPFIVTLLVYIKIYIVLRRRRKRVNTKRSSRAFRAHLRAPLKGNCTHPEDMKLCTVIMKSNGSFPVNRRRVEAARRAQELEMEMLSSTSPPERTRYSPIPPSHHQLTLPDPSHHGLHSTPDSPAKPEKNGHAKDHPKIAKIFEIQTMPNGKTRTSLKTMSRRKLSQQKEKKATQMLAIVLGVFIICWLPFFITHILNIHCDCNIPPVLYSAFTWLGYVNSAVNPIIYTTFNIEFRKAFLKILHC
# procedure-summary: Filtration binding assay, dopamine (Spiperone-I125)

compound: CCN(C)C[C@H](O)CN1CN(c2ccc(F)cc2)C2(CCN([C@H]3Cc4cccc5cccc3c45)CC2)C1=O [compound 433]
assayed-target: D2 receptor (Homo sapiens, UniProt P14416)
IC50: 3.52 µM

compound: O=C1N(C[C@@H](O)CNc2ccncc2)CN(c2ccc(F)cc2)C12CCN(C1Cc3cccc4cccc1c34)CC2 (some centres unmarked) [Compound #327]
assayed-target: D2 receptor (Homo sapiens, UniProt P14416)
IC50: 0.387 µM

====

# assayed-target: mu opioid receptor (Homo sapiens, UniProt P35372)
# Sequence (P35372 whole entry): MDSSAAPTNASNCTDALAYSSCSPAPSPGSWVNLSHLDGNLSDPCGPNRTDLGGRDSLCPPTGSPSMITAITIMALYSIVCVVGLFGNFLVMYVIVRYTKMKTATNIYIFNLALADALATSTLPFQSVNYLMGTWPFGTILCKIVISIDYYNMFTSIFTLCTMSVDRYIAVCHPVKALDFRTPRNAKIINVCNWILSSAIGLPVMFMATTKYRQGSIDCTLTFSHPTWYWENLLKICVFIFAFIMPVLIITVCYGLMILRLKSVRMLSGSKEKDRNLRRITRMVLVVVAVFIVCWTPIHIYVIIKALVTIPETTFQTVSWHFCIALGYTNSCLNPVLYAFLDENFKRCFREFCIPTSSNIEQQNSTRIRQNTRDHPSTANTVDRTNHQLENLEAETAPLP
# procedure-summary: Filtration binding assay: mu opioid receptor
reported-property: IC50 (nM)

compound: Cc1cccc2cccc(CN3CCC4(CC3)C(=O)N(C[C@@H](O)CN(Cc3ccccc3)C(C)(C)C)CN4c3ccc(F)cc3)c12 [compound 395]
result-qualifier: =
assay-value: 1100
--
compound: CC(C)(C)OC(=O)N1CCN(C[C@H](O)CN2CN(c3ccc(F)cc3)C3(CCN(CC4CCCCCCC4)CC3)C2=O)CC1 [Compound #73]
result-qualifier: =
assay-value: 680
--
compound: COc1cc(CNC[C@H](O)CN2CN(c3ccc(F)cc3)C3(CCN(C4Cc5cccc6cccc4c56)CC3)C2=O)cc(OC)c1 (mixture of isomers) [compound 324]
result-qualifier: =
assay-value: 110
--
compound: Cc1cccc2cccc(CN3CCC4(CC3)C(=O)N(C[C@H](O)CNc3ccncc3)CN4c3ccc(F)cc3)c12 [compound 393]
result-qualifier: >
assay-value: 10000
--
compound: O=C1N(C[C@@H](O)CNCCc2c[nH]cn2)CN(c2ccc(F)cc2)C12CCN(CC1CCCCCCC1)CC2 [Compound #28]
result-qualifier: =
assay-value: 410
--
compound: O=C1N(C[C@@H](O)CNc2ccncc2)CN(c2ccc(F)cc2)C12CCN(CC1CCCCCCC1)CC2 [Compound #36]
result-qualifier: =
assay-value: 1760
--
compound: O=C1N(C[C@@H](O)CNCc2cccc(Br)c2)CN(c2ccc(F)cc2)C12CCN(CC1CCCCCCC1)CC2 [compound 20]
result-qualifier: =
assay-value: 1280
--
compound: O=C1N(C[C@H](O)CNCCc2cc3ccc(F)cc3[nH]2)CN(c2ccccc2)C12CCN(CCc1ccccc1-c1cccs1)CC2 [compound 142]
result-qualifier: =
assay-value: 104
--
compound: O=C1N(C[C@@H](O)CN2CCc3ccccc3C2)CN(c2ccc(F)cc2)C12CCN(CC1CCCCCCC1)CC2 [Compound #72]
result-qualifier: =
assay-value: 1840
--
compound: O=C1N(C[C@@H](O)CNCCN2CCOCC2)CN(c2ccc(F)cc2)C12CCN(Cc1cccc3ccccc13)CC2 [compound 251]
result-qualifier: =
assay-value: 1580
--
compound: CCN(C)C[C@H](O)CN1CN(c2ccc(F)cc2)C2(CCN(Cc3cccc4cccc(C)c34)CC2)C1=O [Compound #440]
result-qualifier: >
assay-value: 10000
--
compound: O=C1N(C[C@@H](O)CN2CCN(c3cccc(C(F)(F)F)c3)CC2)CN(c2ccc(F)cc2)C12CCN(CC1CCCCCCC1)CC2 [Compound #66]
result-qualifier: =
assay-value: 550
--
compound: Cc1cccc2cccc(CN3CCC4(CC3)C(=O)N(C[C@@H](O)CO)CN4c3ccc(F)cc3)c12 [compound 554]
result-qualifier: >
assay-value: 10000
